Reported pIC50 by item:
system: 556581-035-R-J1-PDC spheroids with HUVEC/MSC, viability; experiment: Anticancer human tumor 556581-035-R-J1-PDC patient-derived ovarian carcinoma cell line growth inhibition [IpAb]; conditions: curve of compound
pIC50: −log10 of the molar value.

Ask | GET /values?readout=pIC50&system=556581-035-R-J1-PDC spheroids with HUVEC/MSC, viability&item= Cn1ncnc1[C@H]1c2n[nH]c(=O)c3cc(F)cc(c23)N[C@@H]1c1ccc(F)cc1
Reply | < 7.00

Ask | Param readout = pIC50; param system = 556581-035-R-J1-PDC spheroids with HUVEC/MSC, viability; param query = CCCS(=O)(=O)Nc1ccc(F)c(C(=O)c2c[nH]c3ncc(-c4ccc(Cl)cc4)cc23)c1F ; response: value
Reply | < 5.00

Ask | # query: pIC50 | item CC(=O)c1c(C)c2cnc(Nc3ccc(N4CCNCC4)cn3)nc2n(C2CCCC2)c1=O | system: 556581-035-R-J1-PDC spheroids with HUVEC/MSC, viability
Reply | < 6.52

* * *

test system: 556581-035-R-J1-PDC spheroids with HUVEC/MSC, viability; experiment: Anticancer human tumor 556581-035-R-J1-PDC cell line growth inhibition [IpAb]; conditions: second compound 0.1 µM; first compound 0.0949 µM; stronger effect = lower value;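 further: spheroids exposed to compounds for 7 days before readout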
Threshold check on viability, T/C: strictly below 80% is satisfied; on or above 80% is not satisfied.

Look over these answered cases.
>>> label("CC(C)(C)c1cnc(CSc2cnc(NC(=O)C3CCNCC3)s2)o1 + CC(C)NCC(C(=O)N1CCN(c2ncnc3c2C(C)CC3O)CC1)c1ccc(Cl)cc1")
"satisfied"
>>> label("Cn1cnc2c(F)c(Nc3ccc(Br)cc3Cl)c(C(=O)NOCCO)cc21 + CCN1CCN(Cc2ccc(Nc3ncc(F)c(-c4cc(F)c5nc(C)n(C(C)C)c5c4)n3)nc2)CC1")
"not satisfied"
>>> label("CC(C)(C)c1cnc(CSc2cnc(NC(=O)C3CCNCC3)s2)o1 + CCN1CCN(Cc2ccc(Nc3ncc(F)c(-c4cc(F)c5nc(C)n(C(C)C)c5c4)n3)nc2)CC1")
"satisfied"

Next up:
Ask | Criterion: viability, T/C strictly below 80%. Is it met by CC(=O)c1c(C)c2cnc(Nc3ccc(N4CCNCC4)cn3)nc2n(C2CCCC2)c1=O + CC(C)NCC(C(=O)N1CCN(c2ncnc3c2C(C)CC3O)CC1)c1ccc(Cl)cc1 ?
Reply | not satisfied

* * *

tested on: 556581-035-R-J1-PDC spheroids with HUVEC/MSC, viability; experiment: Anticancer human tumor 556581-035-R-J1-PDC cell line growth inhibition [IpAb]; settings: second compound 10 µM; first compound 0.0316 µM; stronger effect = lower value;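 further: spheroids exposed to compounds for 7 days before readout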
Examples of molecules with documented viability, T/C follow.

# annotated cases, reported viability, T/C shown
>>> test_value("Cn1ncnc1[C@H]1c2n[nH]c(=O)c3cc(F)cc(c23)N[C@@H]1c1ccc(F)cc1 + CC(C)NCC(C(=O)N1CCN(c2ncnc3c2C(C)CC3O)CC1)c1ccc(Cl)cc1")
"44.2%"
>>> test_value("COc1c(OCCCN2CCOCC2)ccc2c3n(c(=NC(=O)c4cnc(N)nc4)nc12)CCN3 + CC(C)NCC(C(=O)N1CCN(c2ncnc3c2C(C)CC3O)CC1)c1ccc(Cl)cc1")
"38.5%"

Let's switch to this molecule now.
Ask | Record request: viability, T/C value, item Cn1nccc1Nc1nccc(-c2ccn(C(CO)c3ccc(Cl)c(F)c3)c(=O)c2)n1 (stereo not drawn) + CC(C)NCC(C(=O)N1CCN(c2ncnc3c2C(C)CC3O)CC1)c1ccc(Cl)cc1
Reply | 35.7%
